- Test Target: soluble human FGFR2b protein (his tag, in-house generated) (human) (UniProt P21802)
- Sequence (P21802 other isoform, or with tags, fused parts or gaps limits assumed): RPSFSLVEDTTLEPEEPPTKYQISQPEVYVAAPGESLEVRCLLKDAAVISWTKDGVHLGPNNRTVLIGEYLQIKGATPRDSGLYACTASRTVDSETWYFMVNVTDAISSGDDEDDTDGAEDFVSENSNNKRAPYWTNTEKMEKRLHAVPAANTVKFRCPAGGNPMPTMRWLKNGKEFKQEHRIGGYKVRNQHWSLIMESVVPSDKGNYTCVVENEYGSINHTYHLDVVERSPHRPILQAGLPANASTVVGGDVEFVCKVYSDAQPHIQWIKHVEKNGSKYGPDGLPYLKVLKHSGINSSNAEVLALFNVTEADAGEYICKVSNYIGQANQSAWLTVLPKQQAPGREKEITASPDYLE
- Assay Procedure: SPR, antibody captured by anti-human Fc, human FGFR2b
koff reference
Form entry: value (s⁻¹) — number only.

BGAh9239 (antibody, human IgG1, kappa, V domains shown) VH: QVQLVQSGAEVKKPGSSVKVSCKASGYTFSIYWLNWVRQAPGQGLEWMGQIYPENADTNYSGKFKGRVTITADKSTSTAYMELSSLRSEDTAVYFCARGGFDYWGQGTLVTVSS VL: DIQMTQSPSSLSASVGDRVTITCRASENIYSNLAWYQQKPGKAPKLLIYTATNLAEGVPSRFSGSGSGTDFTLTISSLQPEDFATYYCQHFYGILYTFGQGTRLEIKR ... 0.003
BGAm1823 (antibody, V domains shown) VH: EVQLQQSGAELVKPGASVKISCKASGYAFSIYWMNWVKQRPGKGLEWIGQIYPENGDTNYNGKFKGKATLTADKSSSTAYMHLSSLTSEDSAVYFCARGGFDYWGQGTTLTVSS VL: NIVMTQSPASLSASVGETVTITCRASENIYSNLAWYQQKQGKSPQLLVYTATNLADGVPSRFSGSGSGTQFSLKINSLQPEDFGSYYCQHFYGILYTFGSGTRLEIK ... 0.00185
BGAm1371 (antibody, V domains shown) VH: QVQLKQSGAELVKPGASVKLSCTASGFNIKDTYIHWVKQRPEQGLEWIGRIDPANGNTMFASEFQGKATITAYTSSNTAYMQLSSLTSGDTAVYYCARSKIHYDYDEGFAYWGQGTLVTVSS VL: NIVLTQSPPSLAVSLGQRATVSCRASESVDDYGYSFLHWYQQKPGQPPKLLIYRASNLESGIPARFSGSGSRTDFTLTINPVETDDVATYYCQQSNQNPRTFGGGTKLEIK ... 0.00119

Turning now to a further binder:
Exam item: I'd like to know its koff. The binder in question is BGAh9179 (antibody, human IgG1, kappa, V domains shown) VH: QVQLVQSGAEVKKPGASVKVSCKASGYTITDTYIHWVRQAPGQGLEWMGRIDPAEGNTMFASEFQGRVTMTADTSTSTVYMELSSLRSEDTAVYYCARSKIHYDYDEGFAYWGQGTLVTVSS VL: DIVLTQSPDSLAVSLGERATINCRASESVDDYGYSFLHWYQQKPGQPPKLLIYRASNLESGVPDRFSGSGSGTDFTLTISSLQAEDVAVYYCQQSNQNPRTFGGGTKVEIKR
Marked response: 0.00178
